- Test system: VDR homodimer (NR concentration 270 nM)
- Experiment: PBM binding z-score (relative to random genomic background probes); higher = stronger binding; sequences stand for … in GC…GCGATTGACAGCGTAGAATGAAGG
Recorded Endpoint: PBM binding z-score
Lab note: jot the number down without any unit.

IN: Supply recorded PBM binding z-score for `TCTCGGAGGATACGAAAGGTCAGAGCTCGACATC` here.
OUT: 0.361

IN: Supply recorded PBM binding z-score for `CCCGACAGGTGAAAGGTAACTCAGTCTGGTACGC` here.
OUT: -0.0778

IN: Supply recorded PBM binding z-score for `AATACAGGGTCATCGTGGGCCAGAGTACGCACAG` here.
OUT: 3.9

IN: Supply recorded PBM binding z-score for `TAGCCTAGGTCATTCAGCGGCCAGTATAGAAAGC` here.
OUT: 1.04

IN: Supply recorded PBM binding z-score for `CTCGAAAGGTCGGTTGAGGTGAGTATGCGGATAA` here.
OUT: 0.532

IN: Supply recorded PBM binding z-score for `CAAACTAGGTCACAGAGGTCAAAGTGCGTGCGTA` here.
OUT: 6.01

---

- Tested on: LXRb:RXRa (NR concentration 270 nM, RXRa partner concentration 90 nM)
- Experiment: PBM binding z-score (relative to random genomic background probes); higher = stronger binding; sequences stand for … in GC…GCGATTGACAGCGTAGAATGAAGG
Label scheme for PBM binding z-score: lower than 1 is Condition not met, 1 and above is Condition met.

IN: Check if PBM binding z-score >= 1 (inclusive). Item: `ATCGAAAGGTCGAAGGTGAGTATACCCACCCGAA`
OUT: Condition met

IN: Check if PBM binding z-score >= 1 (inclusive). Item: `CCTACTGGGCCATGCAGAGGTCATTGATCATATG`
OUT: Condition met

IN: Check if PBM binding z-score >= 1 (inclusive). Item: `ACTTACGGGTCAACGAGGTTATAGCACGCGTATA`
OUT: Condition met

IN: Check if PBM binding z-score >= 1 (inclusive). Item: `ATATGTAGGTTACATCCGGCTCATTCAGGCTATG`
OUT: Condition met

IN: Check if PBM binding z-score >= 1 (inclusive). Item: `ACAGACAGGTGATTGAAGGTAACTCAGCTGGACG`
OUT: Condition not met

IN: Check if PBM binding z-score >= 1 (inclusive). Item: `CCTACTGGGCCAAAAAGGTCAGTGATGCCGATAA`
OUT: Condition met

IN: Check if PBM binding z-score >= 1 (inclusive). Item: `ATATGTAGGTTAGCTGGGGTCAGTCAGACTAGGC`
OUT: Condition met

IN: Check if PBM binding z-score >= 1 (inclusive). Item: `CAAACTAGGTCTCCGGAAGGTCAAAGTCCGCATG`
OUT: Condition met

IN: Check if PBM binding z-score >= 1 (inclusive). Item: `AGAATGAGGTTAAGGTCAGGGAAACAGAATACAT`
OUT: Condition met

IN: Check if PBM binding z-score >= 1 (inclusive). Item: `GGAACGAGGGCAAGCTGATAGCAGAGTTTGATGG`
OUT: Condition not met

IN: Check if PBM binding z-score >= 1 (inclusive). Item: `AGAATGAGGCTAAGATCAGGGAAACAGAATACAT`
OUT: Condition not met

IN: Check if PBM binding z-score >= 1 (inclusive). Item: `CCTACTGGGCCACGAAAGGTCATTGTTTCAGTGA`
OUT: Condition met

IN: Check if PBM binding z-score >= 1 (inclusive). Item: `TCTAGTTGGTCAAAGGTCGCACACTCGAAATGCG`
OUT: Condition met

IN: Check if PBM binding z-score >= 1 (inclusive). Item: `TCATATAGGTAAAAGGTAAAAGTCGGTGTGGTAA`
OUT: Condition met

IN: Check if PBM binding z-score >= 1 (inclusive). Item: `TCATATAGGTAACTGCTAGGTGAAAGTCCGATCT`
OUT: Condition not met

IN: Check if PBM binding z-score >= 1 (inclusive). Item: `AGAATGAGGTGAAGATCAGGGAAACAGAATACAT`
OUT: Condition not met

IN: Check if PBM binding z-score >= 1 (inclusive). Item: `TCTAGCAGGCCAGAGGGTCAATCAAGAGGTACGG`
OUT: Condition met

IN: Check if PBM binding z-score >= 1 (inclusive). Item: `ACAGACAGGTGAGTGAAGGTTACTCAGCTGGACG`
OUT: Condition not met

IN: Check if PBM binding z-score >= 1 (inclusive). Item: `CCTATTAGTTGACCATGAGGGCAACCGAAGCTCG`
OUT: Condition not met

IN: Check if PBM binding z-score >= 1 (inclusive). Item: `CATACAGGGTCAGCTAGGCCAGAGGAGGGACGGC`
OUT: Condition met

IN: Check if PBM binding z-score >= 1 (inclusive). Item: `TCTATAAGTTGATTAGGGCAACCGAAACAGCGGA`
OUT: Condition not met

IN: Check if PBM binding z-score >= 1 (inclusive). Item: `ATATGTAGGTTATCGGGCCATTCAGTTTGCGCAT`
OUT: Condition not met

IN: Check if PBM binding z-score >= 1 (inclusive). Item: `GTACCAAGGTGAATAGGTCGTTGGTGAGTAGGCG`
OUT: Condition not met

IN: Check if PBM binding z-score >= 1 (inclusive). Item: `ACTAGCAGGCCAAGGGTCACTGAAGATTAGTCCG`
OUT: Condition met

IN: Check if PBM binding z-score >= 1 (inclusive). Item: `TATACAGGGTCAAAGGCCAGACTACGAATGTCGA`
OUT: Condition met

IN: Check if PBM binding z-score >= 1 (inclusive). Item: `CTACCAAGGTGTACAAGGTCGTTGATTACTATTC`
OUT: Condition met

IN: Check if PBM binding z-score >= 1 (inclusive). Item: `CAGCCTTGGTCAGGGCCAGTATAGGAGGAACGTT`
OUT: Condition not met

IN: Check if PBM binding z-score >= 1 (inclusive). Item: `CGAACGAAGGCATGAGTTGATAGCAAATGCCGAT`
OUT: Condition not met

IN: Check if PBM binding z-score >= 1 (inclusive). Item: `TGTCAAAGTTCAAAGGTAATGTAAGTATCCACAC`
OUT: Condition met

IN: Check if PBM binding z-score >= 1 (inclusive). Item: `GTACCAAGGTGAATAGGTCGTTGACGAGTAGGCG`
OUT: Condition not met

IN: Check if PBM binding z-score >= 1 (inclusive). Item: `CCTACTGGGCCATTCTGAGGTCATTGATCATATG`
OUT: Condition met

IN: Check if PBM binding z-score >= 1 (inclusive). Item: `CCTTACGGGTCAAAGTTATAGCACGGGTGGTACG`
OUT: Condition met

IN: Check if PBM binding z-score >= 1 (inclusive). Item: `CCGAGTAAGTTATGGGGCATTCAGGCAACGGTGA`
OUT: Condition not met

IN: Check if PBM binding z-score >= 1 (inclusive). Item: `GCTCGGAGGACAAGGTTAGAGCTTTGTCCGTAGA`
OUT: Condition not met

IN: Check if PBM binding z-score >= 1 (inclusive). Item: `ACTTACGGGTCAACGAGGTTATCGCACGCGTATA`
OUT: Condition met

IN: Check if PBM binding z-score >= 1 (inclusive). Item: `CAAACTATGTCACGAAAGGTCAAAGTCGAATGAC`
OUT: Condition met

IN: Check if PBM binding z-score >= 1 (inclusive). Item: `TCCCGGAGGACACGAAGGTCAGAGCTTTCCAGAG`
OUT: Condition not met

IN: Check if PBM binding z-score >= 1 (inclusive). Item: `TTACCAAGGTGAAGTTCGTTGATCCCTCTGTAGA`
OUT: Condition not met

IN: Check if PBM binding z-score >= 1 (inclusive). Item: `CCTGATAGGTCAATGGTCAGCTAAAGCAGCTCGC`
OUT: Condition met

IN: Check if PBM binding z-score >= 1 (inclusive). Item: `CCTGCTAGGTAAATGGTCAGCTAAAGCAGCTCGC`
OUT: Condition not met

IN: Check if PBM binding z-score >= 1 (inclusive). Item: `CGTCCACGGTCAATGCTAGGTCAGTGAAAGCATT`
OUT: Condition not met

IN: Check if PBM binding z-score >= 1 (inclusive). Item: `GCGACTGGGGCATAGCAGGTTACCATAAGGTTGG`
OUT: Condition not met

IN: Check if PBM binding z-score >= 1 (inclusive). Item: `CAAACTAGGTCTCAGAGGTCAAAGTCCGTGCGTA`
OUT: Condition met

IN: Check if PBM binding z-score >= 1 (inclusive). Item: `TCTAGTTGGTCTCGGAGGTCACACACGACGGGTA`
OUT: Condition met

IN: Check if PBM binding z-score >= 1 (inclusive). Item: `CGTCCAGGGTCATAGGAGGTCAGTGAAGACAGAT`
OUT: Condition met

IN: Check if PBM binding z-score >= 1 (inclusive). Item: `GCAGACAGGTGAAACGCAGGTACCTCAGGGTGGC`
OUT: Condition not met

IN: Check if PBM binding z-score >= 1 (inclusive). Item: `ACAGACAGGTAATGAAGGTAACTCAGGCTATCAT`
OUT: Condition not met

IN: Check if PBM binding z-score >= 1 (inclusive). Item: `CATAGCAGGCCAGGGTCACTCAAGCATTTCGCTT`
OUT: Condition met

IN: Check if PBM binding z-score >= 1 (inclusive). Item: `CATACAGGGTCAGCTGGGCCAGAGTAGGGACGGC`
OUT: Condition met
